# Measurement Target: Nuclear receptor subfamily 1 group I member 2 (Homo sapiens) (UniProt O75469)
# Sequence (O75469 whole entry, looked up): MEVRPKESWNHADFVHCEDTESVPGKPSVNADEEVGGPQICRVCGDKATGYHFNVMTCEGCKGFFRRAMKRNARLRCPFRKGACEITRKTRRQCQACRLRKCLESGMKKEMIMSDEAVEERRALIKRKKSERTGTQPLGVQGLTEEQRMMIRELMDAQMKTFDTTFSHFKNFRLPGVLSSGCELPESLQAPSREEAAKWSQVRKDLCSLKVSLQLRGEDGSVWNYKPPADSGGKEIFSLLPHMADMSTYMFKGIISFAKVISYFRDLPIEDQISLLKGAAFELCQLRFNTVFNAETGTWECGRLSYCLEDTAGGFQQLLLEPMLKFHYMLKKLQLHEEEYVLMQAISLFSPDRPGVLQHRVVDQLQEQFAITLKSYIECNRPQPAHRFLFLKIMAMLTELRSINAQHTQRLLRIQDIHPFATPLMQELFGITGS
# Assay Remarks: ATG_PXR_TRANS: Attagene TRANS-FACTORIAL HepG2 Assay for human Pregnane X Receptor (PXR) (AID 2283008)
# Description: ATG_TRANS is a cell-based, multiplexed-readout assay that uses HepG2, a human liver cell line, with measurements taken at 24 hours after chemical dosing in a 24-well plate.ATG_PXR_TRANS is one of 30 assay component(s) measured or calculated from the ATG_TRANS assay. […] This assay endpoint, ATG_PXR_TRANS, was analyzed in the positive analysis fitting direction relative to DMSO as the negative control and baseline of activity. […]
Inconclusive results are not listed. Calls of active or inactive are those of the source. How the source made its calls: active means hit-call score of the fitted dose curve at least 0.9, where 1 is the maximum; inconclusive means response in the unintended direction; inactive means score below 0.9.
Outcome field: choose from active, inactive

// known answers, use as guide
>>> assigned_category("IC(I)I")
"inactive"
>>> assigned_category("C1=CC2C3C=CC(C3)C2C1 (centres undefined)")
"inactive"
>>> assigned_category("COC(C)(C)CCO")
"inactive"
>>> assigned_category("CN(c1nccc(=O)[nH]1)C1CCN(c2nc3ccccc3n2Cc2ccc(F)cc2)CC1")
"inactive"
>>> assigned_category("COc1ccc(OC)c(N=Nc2c(O)ccc3ccccc23)c1")
"active"
>>> assigned_category("O=C(Nc1ccc([N+](=O)[O-])cc1)Nc1ccc([N+](=O)[O-])cc1 (tested in a mixture with another compound)")
"inactive"
>>> assigned_category("OCc1ccc(Cl)cc1Cl")
"inactive"
>>> assigned_category("Cc1ccc(S(N)(=O)=O)cc1")
"inactive"

(Q) Give the logged outcome of this assay for the following compound: CCCCCCC(O)CCCCCCCCCCC(=O)O (centres undefined)
(A) inactive

(Q) Check the results log: what was the call for COc1ccccc1[N+](=O)[O-] ?
(A) inactive

----------
# Assay Remarks: ATG_NFI_CIS: Attagene CIS-FACTORIAL HepG2 Assay for human Nuclear Factor I (NFI) (AID 2282989)
# Condition Notes: HepG2 cis-regulatory reporter, NFI response element transcription; actives raise or lower the signal
The source made the active and inactive calls. The calls were made as follows: active = hit-call score of the fitted dose curve at least 0.9, where 1 is the maximum; inactive = score below 0.9.
Could you please pick one outcome from this set? TRUE for active, FALSE for inactive

Please review the following examples before continuing.
>>> assigned_category("CCNCCO")
"FALSE"
>>> assigned_category("COc1ccc(N=Nc2cc(C)c(N=Nc3ccc(S(=O)(=O)O)cc3)cc2OC)cc1")
"TRUE"
>>> assigned_category("COC(=O)c1cccnc1")
"FALSE"
>>> assigned_category("O=C(Nc1ccc2c(O)c(N=Nc3ccc(N=Nc4ccc(S(=O)(=O)O)cc4)cc3)c(S(=O)(=O)O)cc2c1)c1ccccc1")
"FALSE"

(Q) Assay outcome for CC1=CC[C@@]23C[C@@H]1C(C)(C)[C@@H]2CC[C@H]3C : what was it?
(A) FALSE

(Q) Fill in: this test's call for CC(C)=CCCC(C)CCOC=O (stereo unspecified) is ___
(A) FALSE

----------
# Read-out: E-selectin (Homo sapiens) (UniProt P16581)
# Sequence (P16581 whole entry, looked up): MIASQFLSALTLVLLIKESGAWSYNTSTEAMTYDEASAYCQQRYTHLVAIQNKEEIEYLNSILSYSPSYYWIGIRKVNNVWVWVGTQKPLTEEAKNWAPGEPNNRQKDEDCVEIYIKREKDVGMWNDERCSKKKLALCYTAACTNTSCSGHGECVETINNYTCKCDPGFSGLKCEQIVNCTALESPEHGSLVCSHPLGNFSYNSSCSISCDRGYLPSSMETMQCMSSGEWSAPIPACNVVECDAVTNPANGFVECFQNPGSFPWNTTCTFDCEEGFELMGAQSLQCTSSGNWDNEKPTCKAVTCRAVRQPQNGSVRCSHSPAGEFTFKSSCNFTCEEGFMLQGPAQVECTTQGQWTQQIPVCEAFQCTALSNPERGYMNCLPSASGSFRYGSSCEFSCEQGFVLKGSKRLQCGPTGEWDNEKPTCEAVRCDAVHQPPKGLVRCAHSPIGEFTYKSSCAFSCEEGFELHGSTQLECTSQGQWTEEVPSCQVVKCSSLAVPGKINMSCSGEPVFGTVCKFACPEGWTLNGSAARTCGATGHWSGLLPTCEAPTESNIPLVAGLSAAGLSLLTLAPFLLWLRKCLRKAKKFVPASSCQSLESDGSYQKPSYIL
# Assay Remarks: BSK_3C_Eselectin: BioMAP Diversity Plus: 3C Assay for Eselectin Biomarker Activity (AID 2283015);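 on outcome: cell surface E-selectin protein quantified by ELISA 24 h after dosing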
# Condition Notes: primary human endothelial cells (HUVEC); actives raise or lower the signal
Activity calls are given as the source filed them. The calls were made as follows: active = hit-call score of the fitted dose curve at least 0.9, where 1 is the maximum; inactive = score below 0.9.
Log the outcome using a class from true (active), false (inactive)

>>> assigned_category("CC1(C)C2=CCCC(C)(C)[C@]23CC[C@H]1C3")
"true"

(Q) Which outcome was entered for the molecule CN(c1nccc(=O)[nH]1)C1CCN(c2nc3ccccc3n2Cc2ccc(F)cc2)CC1 in this test?
(A) false

----------
# Measurement Target: Transcriptional activator Myb (Homo sapiens)
# Assay Remarks: ATG_Myb_CIS: Attagene CIS-FACTORIAL HepG2 Assay for human Myeloblastosis (Myb) Proto-Oncogene Transcription Factor (AID 2282986)
# Condition Notes: HepG2 Attagene CIS-FACTORIAL Myb reporter transcription; actives raise or lower the signal
# Protocol: ATG_CIS is a cell-based, multiplexed-readout assay that uses HepG2, a human liver cell line, with measurements taken at 24 hours after chemical dosing in a 24-well plate.ATG_Myb_CIS is one of 52 assay component(s) measured or calculated from the ATG_CIS assay. […] This assay endpoint, ATG_Myb_CIS, was analyzed with bidirectional fitting relative to DMSO as the negative control and baseline of activity. […]
Active and inactive are the calls of the source. How the source made its calls: active means hit-call score of the fitted dose curve at least 0.9, where 1 is the maximum; inactive means score below 0.9.
Thanks in advance; please answer with one of these: active, inactive

Use the examples below as a reference point.
>>> assigned_category("O=C(c1ccccc1)C(O)c1ccccc1 (configuration not stated)")
"inactive"
>>> assigned_category("CC(=O)O[C@H]1C[C@@H]2CC[C@@]1(C)C2(C)C")
"inactive"
>>> assigned_category("CCCCCCCC(=O)OCC(O)CO (configuration not stated)")
"inactive"
>>> assigned_category("COC(=O)c1ccc(C)cc1C1=NC(C)(C(C)C)C(=O)N1 (configuration not stated) (tested in a mixture with another compound)")
"inactive"
>>> assigned_category("CC1=NN(c2ccc(S(=O)(=O)O)cc2)C(=O)C1")
"inactive"
>>> assigned_category("C=C(C)C(=O)OCCOCCOCCOC(=O)C(=C)C")
"inactive"
>>> assigned_category("NC1CCCCC1N (configuration not stated)")
"inactive"
>>> assigned_category("NCc1ccco1")
"inactive"

(Q) # fetch the recorded call for O=C(CC(=O)c1ccccc1)c1ccccc1 here
(A) active

(Q) Fill in: this test's call for CN(C)C(=O)Nc1ccc(Oc2ccc(Cl)cc2)cc1 is ___
(A) inactive

(Q) Outcome logged for CCNCCO in this assay:
(A) inactive

(Q) Per the records of this test, what outcome belongs to CC(C)CCCCCCc1ccc(OCCOCCO)cc1 ?
(A) inactive

(Q) Give the logged outcome of this assay for the following molecule: OCc1cccc(Oc2ccccc2)c1
(A) inactive

(Q) // param item: CN(C)c1cccc(O)c1 ; yields the recorded call
(A) inactive

(Q) What outcome does the record of this test show for CC(C)CCCCCCCCCCCCCCC(=O)O ?
(A) inactive

(Q) Which result was noted for this molecule in the test: CC(=O)Nc1ccc(C(=O)CCl)cc1
(A) inactive

(Q) Please indicate how the test categorized Cc1c(C2(c3cc(Br)c(O)c(Br)c3C)OS(=O)(=O)c3ccccc32)cc(Br)c(O)c1Br .
(A) inactive

(Q) Given CCCC1O[C@@H]2C[C@H]3[C@@H]4CCC5=CC(=O)C=C[C@]5(C)[C@H]4[C@@H](O)C[C@]3(C)[C@]2(C(=O)CO)O1 (some centres not stated) , state the outcome it received in this test.
(A) inactive

(Q) Recorded call for CCCCCCCCCCCC(=O)OCC(O)CO (configuration not stated) ?
(A) inactive

(Q) How was CCCCCCOC(=O)C(C)C classified in this test?
(A) inactive

(Q) Can you look up the reported call for CN(C)CCOc1ccc(/C(=C(/CCCl)c2ccccc2)c2ccccc2)cc1 for me?
(A) inactive

(Q) How was COc1cccc(OC)c1O classified in this test?
(A) inactive

(Q) How did this test come out for O=C(Nc1ccc2c(O)c(N=Nc3ccc(N=Nc4ccc(S(=O)(=O)O)cc4)cc3)c(S(=O)(=O)O)cc2c1)c1ccccc1 ?
(A) inactive

(Q) Any idea what this test logged for O=C1OC(=O)c2c(Cl)c(Cl)c(Cl)c(Cl)c21 ?
(A) inactive

(Q) Returns: the outcome recorded for O=C(O)CCCCCCCCCCCC(=O)O in this assay.
(A) inactive

(Q) How did this test come out for NCC1CCCC(CN)C1 (configuration not stated) ?
(A) inactive

(Q) Please share the test call associated with CN(C)C(=S)SC(=S)N(C)C .
(A) inactive

----------
# Assay Remarks: CCTE_Deisenroth_5AR_NBTE_acceptor: CCTE's 5alpha-reductase NanoBRET Target Engagement Assay - Autofluorescence Screen, Deisenroth Lab (AID 2284321);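 further: compound fluorescence in the acceptor channel under 460 nm excitation flags autofluorescence artifacts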
# Condition Notes: actives raise or lower the signal
# Experimental: CCTE_Deisenroth_5AR NBTE (5alpha-reductase NanoBRET Target Engagement Assay) is a cell-based, single-readout assay that uses HEK293T, a human kidney cell line, with measurements taken at 5 hours after chemical dosing in a 384 well plate. This assay includes a primary and secondary screen as well as an autofluorscence screen.CCTE_Deisenroth_5AR NBTE_acceptor is one of four assay components measured from the CCTE_Deisenroth_5AR NBTE assay. […]
Active and inactive are the calls of the source. How the source made its calls: active means hit-call score of the fitted dose curve at least 0.9, where 1 is the maximum; inactive means score below 0.9.
// classify into active, inactive

>>> assigned_category("Nc1ccc(N)c2c1C(=O)c1ccccc1C2=O")
"active"
>>> assigned_category("C=CC(=O)OCCCC")
"inactive"
>>> assigned_category("CCCCCCCCCCCCCCN(CCO)CCO")
"active"
>>> assigned_category("COc1ccc(N=Nc2cc(C)c(N=Nc3ccc(S(=O)(=O)O)cc3)cc2OC)cc1")
"active"
>>> assigned_category("Nc1ccccc1[N+](=O)[O-]")
"inactive"

(Q) Assay outcome for C[C@H]1O[C@@H](O[C@H]2[C@@H](O)C[C@H](O[C@H]3[C@@H](O)C[C@H](O[C@H]4CC[C@@]5(C)[C@H](CC[C@@H]6[C@@H]5C[C@@H](O)[C@]5(C)[C@@H](C7=CC(=O)OC7)CC[C@]65O)C4)O[C@@H]3C)O[C@@H]2C)C[C@H](O)[C@@H]1O : what was it?
(A) inactive

(Q) Recorded test outcome, item CCCCCCCC(=O)OCC(O)CO (stereo unspecified)
(A) inactive

(Q) Just curious, what result did O=[N+]([O-])c1ccc(O)cc1C(F)(F)F get here?
(A) inactive

(Q) Outcome logged for CC(CN=Cc1ccccc1O)N=Cc1ccccc1O (stereo unspecified) in this assay:
(A) inactive

(Q) Entry Clc1ccc(C(c2ccccc2Cl)C(Cl)Cl)cc1 (stereo unspecified) : call = ?
(A) inactive

(Q) How was O=C(Nc1ccc2c(O)c(N=Nc3ccc(N=Nc4ccc(S(=O)(=O)O)cc4)cc3)c(S(=O)(=O)O)cc2c1)c1ccccc1 classified in this test?
(A) inactive
